Biological target: UniProt P28335
Sequence (P28335 whole entry): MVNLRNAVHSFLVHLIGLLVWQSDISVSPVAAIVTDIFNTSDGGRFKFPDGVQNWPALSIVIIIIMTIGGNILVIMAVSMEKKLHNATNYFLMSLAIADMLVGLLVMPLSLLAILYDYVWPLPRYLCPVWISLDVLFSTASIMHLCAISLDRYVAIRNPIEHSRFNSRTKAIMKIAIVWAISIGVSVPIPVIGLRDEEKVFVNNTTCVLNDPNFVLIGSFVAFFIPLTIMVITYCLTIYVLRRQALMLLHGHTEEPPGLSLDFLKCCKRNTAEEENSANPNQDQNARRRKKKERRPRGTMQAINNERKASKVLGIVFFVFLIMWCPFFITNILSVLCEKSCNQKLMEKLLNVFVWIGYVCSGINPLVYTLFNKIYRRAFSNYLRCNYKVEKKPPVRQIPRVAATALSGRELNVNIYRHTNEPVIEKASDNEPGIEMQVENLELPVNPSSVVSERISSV
pKd: −log10 of the molar value.
Experimental Endpoint: pKd

INSERT INTO results (entry_smiles, observed_measurement) VALUES
  ('COc1ccc(C[C@H](C)CN2C[C@@H]3CCCC[C@@H]3[C@H](C(=O)N3CCN(c4ccc(F)c(F)c4)CC3)C2)cn1.O=C(O)/C=C/C(=O)O', 6.37);

###

Target: UniProtKB P35346
Sequence (P35346 whole entry): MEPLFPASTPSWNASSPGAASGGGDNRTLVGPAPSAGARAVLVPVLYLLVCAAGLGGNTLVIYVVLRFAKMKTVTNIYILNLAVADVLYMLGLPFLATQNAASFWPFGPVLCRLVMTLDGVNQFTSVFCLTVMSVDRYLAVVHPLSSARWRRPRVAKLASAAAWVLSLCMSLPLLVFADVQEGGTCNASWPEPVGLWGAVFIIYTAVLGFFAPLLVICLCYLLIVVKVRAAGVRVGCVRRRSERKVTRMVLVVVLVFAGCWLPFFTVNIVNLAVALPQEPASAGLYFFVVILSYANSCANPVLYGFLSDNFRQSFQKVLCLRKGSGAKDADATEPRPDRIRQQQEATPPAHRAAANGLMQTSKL
pKd: −log10 of the molar value.
Experimental Endpoint: pKd

INSERT INTO assay_data (entry_smiles, experimental_endpoint, observed_measurement) VALUES
  ('C[C@@H](Cc1ccc2nsnc2c1)CN1C[C@@H]2CCCC[C@@H]2[C@H](C(=O)N2CCN(c3ccc(F)c(F)c3)CC2)C1', 'pKd', 5.78);

###

Biological target: Cytochrome P450 2D6 (Homo sapiens, UniProt P10635)
Sequence (P10635 whole entry): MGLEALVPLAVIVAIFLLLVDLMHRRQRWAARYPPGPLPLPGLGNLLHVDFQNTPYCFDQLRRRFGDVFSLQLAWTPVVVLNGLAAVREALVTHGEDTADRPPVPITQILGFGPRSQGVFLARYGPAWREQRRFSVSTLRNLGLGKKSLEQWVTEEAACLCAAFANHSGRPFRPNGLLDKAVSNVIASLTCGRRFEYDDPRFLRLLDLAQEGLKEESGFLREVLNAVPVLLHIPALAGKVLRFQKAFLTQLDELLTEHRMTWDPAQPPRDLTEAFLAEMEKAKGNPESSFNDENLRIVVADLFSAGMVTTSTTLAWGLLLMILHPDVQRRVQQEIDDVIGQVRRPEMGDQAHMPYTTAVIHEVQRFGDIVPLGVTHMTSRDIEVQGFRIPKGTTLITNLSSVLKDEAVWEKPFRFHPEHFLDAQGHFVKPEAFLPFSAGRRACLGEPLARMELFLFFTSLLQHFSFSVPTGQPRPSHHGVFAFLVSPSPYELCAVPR
Assay: Inhibition of CYP2D6
Format: ADME
Experimental Endpoint: IC50

INSERT INTO results (entry_smiles, observed_measurement) VALUES
  ('COc1ccc(C[C@H](C)CN2C[C@@H]3CCCC[C@@H]3[C@H](C(=O)N3CCN(c4ccc(F)c(F)c4)CC3)C2)cn1.O=C(O)/C=C/C(=O)O', '6.5 µM');

###

Experiment: Ratio of drug level in brain to plasma in rat at 3 mg/kg, po after 1 hr by LC-MS based method
Type: ADME, organism-based
Design: dose 3 mg/kg, route oral
Conditions: brain and plasma
Experimental Endpoint: Kp at 1 h

INSERT INTO results (entry_smiles, experimental_endpoint, observed_measurement) VALUES
  ('COc1ccc(C[C@H](C)CN2C[C@@H]3CCCC[C@@H]3[C@H](C(=O)N3CCN(c4ccc(F)c(F)c4)CC3)C2)cn1.O=C(O)/C=C/C(=O)O', 'Kp at 1 h', 0.4);

###

Organism: Homo sapiens
Assay: Selectivity for human SST3 over human SST1
Experimental Endpoint: Ratio

INSERT INTO assay_data (compound, experimental_endpoint, observed_measurement) VALUES
  ('Cc1cn2cc(C[C@H](C)CN3C[C@@H]4CCCC[C@@H]4[C@H](C(=O)N4CCN(c5ccc(F)c(F)c5)CC4)C3)ccc2n1', 'Ratio', 0.4),
  ('Cc1nc2ccc(C[C@H](C)CN3C[C@@H]4CCCC[C@@H]4[C@H](C(=O)N4CCN(c5ccc(F)c(F)c5)CC4)C3)cn2n1', 'Ratio', 620),
  ('CC(Cc1ccc2c(c1)OCO2)CN1C[C@H]2CCCC[C@H]2[C@@H](C(=O)N2CCN(c3ccc([N+](=O)[O-])cc3)CC2)C1 (mixture of isomers)', 'Ratio', 100),
  ('COc1ccc(C[C@H](C)CN2C[C@@H]3CCCC[C@@H]3[C@H](C(=O)N3CCN(c4ccc(F)c(F)c4)CC3)C2)cn1.O=C(O)/C=C/C(=O)O', 'Ratio', '> 100'),
  ('COC(=O)c1cc(C[C@H](C)CN2C[C@@H]3CCCC[C@@H]3[C@H](C(=O)N3CCN(c4ccc([N+](=O)[O-])cc4)CC3)C2)cc(C(=O)OC)c1', 'Ratio', 760);
